Test system: Enterococcus faecalis
PROTOCOL_NOTES: Antimicrobial screening, resazurine test
Assay type: cell-based
CONDITION: Enterococcus faecalis, E. faecalis, c = 25 µg·mL-1; read-out: Inhibition of the microorganism

{"COMPOUND": "CC1(C)C=C2[C@H]3CC[C@@H]4[C@@]5(C)CCC(=O)C(C)(C)[C@@H]5CC[C@@]4(C)[C@]3(C)CC[C@@]2(C(=O)NCCOCCOCCOCCn2cc(COC(=O)[C@]34CCC(C)(C)C=C3[C@H]3CC[C@@H]5[C@@]6(C)CCC(=O)C(C)(C)[C@@H]6CC[C@@]5(C)[C@]3(C)CC4)nn2)CC1", "inhibition at 25 µg/mL": "> 62%"}
{"COMPOUND": "CC1(C)C=C2[C@H]3CC[C@@H]4[C@@]5(C)CCC(=O)C(C)(C)[C@@H]5CC[C@@]4(C)[C@]3(C)CC[C@@]2(C(=O)NCCOCCOCCOCCn2cc(CO[C@H]3CC[C@]4(C)[C@H]5CC=C6C7CC(C)(C)CC[C@]7(C(=O)O)CC[C@@]6(C)[C@]5(C)CC[C@H]4C3(C)C)nn2)CC1 (stereo partly drawn)", "inhibition at 25 µg/mL": "0 to 1%"}
{"COMPOUND": "CC1(C)C=C2C3CC[C@@H]4[C@@]5(C)CC[C@H](OCc6cn(CCOCCOCCOCCNC(=O)[C@]78CCC(C)(C)C=C7[C@H]7CC[C@@H]9[C@@]%10(C)CCC(=O)C(C)(C)[C@@H]%10CC[C@@]9(C)[C@]7(C)CC8)nn6)C(C)(C)[C@@H]5CC[C@@]4(C)[C@]3(C)CC[C@@]2(C(=O)O)CC1 (stereo partly drawn)", "inhibition at 25 µg/mL": "2%"}

====

PROTOCOL_NOTES: Cytotoxicity screening test, reference cells
Type: cell-based
CONDITION: BJ foreskin fibroblasts; BJ human fibroblasts
pIC50: −log10 of the molar value.

{"MOLECULE": "CC1(C)C=C2C3CC[C@@H]4[C@@]5(C)CC[C@H](OCc6cn(CCOCCOCCOCCNC(=O)[C@]78CCC(C)(C)C=C7[C@H]7CC[C@@H]9[C@@]%10(C)CCC(=O)C(C)(C)[C@@H]%10CC[C@@]9(C)[C@]7(C)CC8)nn6)C(C)(C)[C@@H]5CC[C@@]4(C)[C@]3(C)CC[C@@]2(C(=O)O)CC1 (stereo partly shown) [6d]", "pIC50": "< 4.30"}

====

Each entry below carries its reported inhibition at 50 µg/mL.
Test system: Pseudomonas aeruginosa
PROTOCOL_NOTES: Antimicrobial screening, resazurine test
Format: cell-based
CONDITION: P. aeruginosa, c = 50 µg·mL-1, read-out: Inhibition of the microorganism

{"MOLECULE": "CC1(C)C=C2[C@H]3CC[C@@H]4[C@@]5(C)CCC(=O)C(C)(C)[C@@H]5CC[C@@]4(C)[C@]3(C)CC[C@@]2(C(=O)NCCOCCOCCOCCn2cc(COC(=O)[C@]34CCC(C)(C)C=C3[C@H]3CC[C@@H]5[C@@]6(C)CCC(=O)C(C)(C)[C@@H]6CC[C@@]5(C)[C@]3(C)CC4)nn2)CC1", "SYSTEM": "Pseudomonas aeruginosa", "inhibition at 50 µg/mL, %": 47}
{"MOLECULE": "CC1(C)C=C2[C@H]3CC[C@@H]4[C@@]5(C)CCC(=O)C(C)(C)[C@@H]5CC[C@@]4(C)[C@]3(C)CC[C@@]2(C(=O)NCCOCCOCCOCCn2cc(CO[C@H]3CC[C@]4(C)[C@H]5CC=C6C7CC(C)(C)CC[C@]7(C(=O)O)CC[C@@]6(C)[C@]5(C)CC[C@H]4C3(C)C)nn2)CC1 (stereo partly shown)", "SYSTEM": "Pseudomonas aeruginosa", "inhibition at 50 µg/mL, %": 69}
{"MOLECULE": "CC1(C)CC[C@]2(C(=O)O)CC[C@]3(C)C(=CC[C@@H]4[C@@]5(C)CC[C@H](OCc6cn(CCOCCOCCOCCNC(=O)[C@]78CCC(C)(C)CC7C7=CC[C@@H]9[C@@]%10(C)CC[C@H](O)C(C)(C)[C@@H]%10CC[C@@]9(C)[C@]7(C)CC8)nn6)C(C)(C)[C@@H]5CC[C@]43C)C2C1 (stereo partly shown)", "SYSTEM": "Pseudomonas aeruginosa", "inhibition at 50 µg/mL, %": 17}
{"MOLECULE": "CC1(C)C=C2C3CC[C@@H]4[C@@]5(C)CC[C@H](OCc6cn(CCOCCOCCOCCNC(=O)[C@]78CCC(C)(C)C=C7C7CC[C@@H]9[C@@]%10(C)CC[C@H](O)C(C)(C)[C@@H]%10CC[C@@]9(C)[C@]7(C)CC8)nn6)C(C)(C)[C@@H]5CC[C@@]4(C)[C@]3(C)CC[C@@]2(C(=O)O)CC1 (stereo partly shown)", "SYSTEM": "Pseudomonas aeruginosa", "inhibition at 50 µg/mL, %": 59}

====

Test system: Pseudomonas aeruginosa
PROTOCOL_NOTES: Antimicrobial screening, resazurine test
Assay type: cell-based
CONDITION: P. aeruginosa, c = 100 µg·mL-1, read-out: Inhibition of the microorganism

{"COMPOUND": "CC1(C)CC[C@]2(C(=O)O)CC[C@]3(C)C(=CC[C@@H]4[C@@]5(C)CC[C@H](OCc6cn(CCOCCOCCOCCNC(=O)[C@]78CCC(C)(C)CC7C7=CC[C@@H]9[C@@]%10(C)CC[C@H](O)C(C)(C)[C@@H]%10CC[C@@]9(C)[C@]7(C)CC8)nn6)C(C)(C)[C@@H]5CC[C@]43C)C2C1 (stereo partly shown) [8a]", "UOM": "%", "inhibition at 100 µg/mL": 14}
{"COMPOUND": "CC1(C)C=C2C3CC[C@@H]4[C@@]5(C)CC[C@H](OCc6cn(CCOCCOCCOCCNC(=O)[C@]78CCC(C)(C)C=C7C7CC[C@@H]9[C@@]%10(C)CC[C@H](O)C(C)(C)[C@@H]%10CC[C@@]9(C)[C@]7(C)CC8)nn6)C(C)(C)[C@@H]5CC[C@@]4(C)[C@]3(C)CC[C@@]2(C(=O)O)CC1 (stereo partly shown) [8b]", "UOM": "%", "inhibition at 100 µg/mL": 60}
{"COMPOUND": "CC1(C)C=C2[C@H]3CC[C@@H]4[C@@]5(C)CCC(=O)C(C)(C)[C@@H]5CC[C@@]4(C)[C@]3(C)CC[C@@]2(C(=O)NCCOCCOCCOCCn2cc(COC(=O)[C@]34CCC(C)(C)C=C3[C@H]3CC[C@@H]5[C@@]6(C)CCC(=O)C(C)(C)[C@@H]6CC[C@@]5(C)[C@]3(C)CC4)nn2)CC1 [4c]", "UOM": "%", "inhibition at 100 µg/mL": 46}
{"COMPOUND": "CC1(C)C=C2[C@H]3CC[C@@H]4[C@@]5(C)CCC(=O)C(C)(C)[C@@H]5CC[C@@]4(C)[C@]3(C)CC[C@@]2(C(=O)NCCOCCOCCOCCn2cc(CO[C@H]3CC[C@]4(C)[C@H]5CC=C6C7CC(C)(C)CC[C@]7(C(=O)O)CC[C@@]6(C)[C@]5(C)CC[C@H]4C3(C)C)nn2)CC1 (stereo partly shown) [6c]", "UOM": "%", "inhibition at 100 µg/mL": 60}

====

PROTOCOL_NOTES: Cytotoxicity screening test
Format: cell-based
CONDITION: human, MCF7 breast carcinoma cells

{"COMPOUND": "CC1(C)C=C2C3CC[C@@H]4[C@@]5(C)CC[C@H](OCc6cn(CCOCCOCCOCCNC(=O)[C@]78CCC(C)(C)C=C7[C@H]7CC[C@@H]9[C@@]%10(C)CCC(=O)C(C)(C)[C@@H]%10CC[C@@]9(C)[C@]7(C)CC8)nn6)C(C)(C)[C@@H]5CC[C@@]4(C)[C@]3(C)CC[C@@]2(C(=O)O)CC1 (stereo partly shown)", "IC50": "> 50 µM"}

====

Tested on: Bacillus cereus
PROTOCOL_NOTES: Antimicrobial screening, resazurine test
Type: cell-based
CONDITION: Bacillus cereus; B. cereus, c = 25 µg·mL-1; read-out: Inhibition of the microorganism

{"COMPOUND": "CC1(C)C=C2C3CC[C@@H]4[C@@]5(C)CC[C@H](OCc6cn(CCOCCOCCOCCNC(=O)[C@]78CCC(C)(C)C=C7C7CC[C@@H]9[C@@]%10(C)CC[C@H](O)C(C)(C)[C@@H]%10CC[C@@]9(C)[C@]7(C)CC8)nn6)C(C)(C)[C@@H]5CC[C@@]4(C)[C@]3(C)CC[C@@]2(C(=O)O)CC1 (some centres unmarked)", "COMPARISON_OPERATOR": "=", "inhibition at 25 µg/mL (%)": 16}
{"COMPOUND": "CC1(C)C=C2C3CC[C@@H]4[C@@]5(C)CC[C@H](OCc6cn(CCOCCOCCOCCNC(=O)[C@]78CCC(C)(C)C=C7[C@H]7CC[C@@H]9[C@@]%10(C)CCC(=O)C(C)(C)[C@@H]%10CC[C@@]9(C)[C@]7(C)CC8)nn6)C(C)(C)[C@@H]5CC[C@@]4(C)[C@]3(C)CC[C@@]2(C(=O)O)CC1 (some centres unmarked)", "COMPARISON_OPERATOR": "=", "inhibition at 25 µg/mL (%)": 1}
{"COMPOUND": "CC1(C)CC[C@]2(C(=O)O)CC[C@]3(C)C(=CC[C@@H]4[C@@]5(C)CC[C@H](O)C(C)(C)[C@@H]5CC[C@]43C)[C@@H]2C1 [1a, Oleanolic acid, reference compound]", "COMPARISON_OPERATOR": ">", "inhibition at 25 µg/mL (%)": 77}
{"COMPOUND": "CC1(C)C=C2[C@H]3CC[C@@H]4[C@@]5(C)CCC(=O)C(C)(C)[C@@H]5CC[C@@]4(C)[C@]3(C)CC[C@@]2(C(=O)NCCOCCOCCOCCn2cc(COC(=O)[C@]34CCC(C)(C)C=C3[C@H]3CC[C@@H]5[C@@]6(C)CCC(=O)C(C)(C)[C@@H]6CC[C@@]5(C)[C@]3(C)CC4)nn2)CC1", "COMPARISON_OPERATOR": "=", "inhibition at 25 µg/mL (%)": 2}
{"COMPOUND": "CN(C)[C@@H]1C(O)=C(C(N)=O)C(=O)[C@@]2(O)C(O)=C3C(=O)c4c(O)cccc4[C@@](C)(O)[C@H]3C[C@@H]12 [tetracycline, reference compound]", "COMPARISON_OPERATOR": "=", "inhibition at 25 µg/mL (%)": 99}
{"COMPOUND": "CC1(C)C=C2[C@H]3CC[C@@H]4[C@@]5(C)CCC(=O)C(C)(C)[C@@H]5CC[C@@]4(C)[C@]3(C)CC[C@@]2(C(=O)NCCOCCOCCOCCn2cc(CO[C@H]3CC[C@]4(C)[C@H]5CC=C6C7CC(C)(C)CC[C@]7(C(=O)O)CC[C@@]6(C)[C@]5(C)CC[C@H]4C3(C)C)nn2)CC1 (some centres unmarked)", "COMPARISON_OPERATOR": "=", "inhibition at 25 µg/mL (%)": 7}
